- Condition details: 298.15 K; 101.33 kPa; Liquid
# maps each entry to its mass density
# number only, unit kg/m3 dropped from output

CCCCCCCCCCCCCCCC [hexadecane]    771.15
c1ccsc1 [thiophene]    1058.5
CCCCCCCCCCCC [dodecane]    745.32

// below: mass density requested for another molecule
Prompt: Reported mass density, molecule CCCCCCC [heptane] : ____
Completion: 679.466

Reference source for all entries: the NIST ThermoML archive (doi:10.1016/j.jct.2008.01.025)
